# experimentDescription: Toxicity liver stage against HepG2, at 10uM
# Assay type: cell-based
# Set-up: test concentration 10 uM, cell line HepG2-A16-CD81EGFP
# runConditions: human, HepG2-A16-CD81EGFP cells; read-out: INHIBITION

[
  {
    "molecule": "CCCc1ncc(CNC2(c3ccc(Cl)cc3)CCC2)cn1",
    "unitAbbrev": "%",
    "cytotoxicity at 10 µM": -9.48
  },
  {
    "molecule": "CC1CCN(C(=O)C2CCCN(C(=O)Nc3ccccn3)C2)CC1 (centres undefined)",
    "unitAbbrev": "%",
    "cytotoxicity at 10 µM": -2.98
  },
  {
    "molecule": "CN1CCN2CCN(C(=O)c3cc4ncc(CCO)cn4n3)CC2C1 (centres undefined)",
    "unitAbbrev": "%",
    "cytotoxicity at 10 µM": 6.99
  },
  {
    "molecule": "CCCc1nc(CNC(=O)Cc2cc(C)no2)cs1",
    "unitAbbrev": "%",
    "cytotoxicity at 10 µM": -11.5
  },
  {
    "molecule": "Cc1cc(C)n(C2CCCN(C(=O)c3c[nH]c(=O)c(Cl)c3)C2)n1 (centres undefined)",
    "unitAbbrev": "%",
    "cytotoxicity at 10 µM": -5.03
  },
  {
    "molecule": "CCn1cc(CN2C[C@@H]3CCCN3C[C@H]2CCSC)cn1",
    "unitAbbrev": "%",
    "cytotoxicity at 10 µM": -25.4
  },
  {
    "molecule": "CCN1CCN(CCCNc2ncccn2)CC1",
    "unitAbbrev": "%",
    "cytotoxicity at 10 µM": 3.41
  },
  {
    "molecule": "CNC(=O)c1cc2c(nc1NCC(C)C)CCN(S(C)(=O)=O)CC2",
    "unitAbbrev": "%",
    "cytotoxicity at 10 µM": -161
  },
  {
    "molecule": "CN(C(=O)c1ccco1)c1nc2c(s1)CCCC2",
    "unitAbbrev": "%",
    "cytotoxicity at 10 µM": 13.7
  },
  {
    "molecule": "Cc1ccnc(NC(=O)C2CCN(CCCc3cn[nH]c3)CC2)c1",
    "unitAbbrev": "%",
    "cytotoxicity at 10 µM": -49
  },
  {
    "molecule": "N#Cc1ccnc(N2CCN(CC(O)c3ccc(F)cc3)CC2)c1 (centres undefined)",
    "unitAbbrev": "%",
    "cytotoxicity at 10 µM": 2.99
  },
  {
    "molecule": "COCCn1c(CN2CCCCO2)cnc1S(=O)(=O)CC1CCCCC1",
    "unitAbbrev": "%",
    "cytotoxicity at 10 µM": -6.58
  },
  {
    "molecule": "Cc1cnc(CN2CCCC(c3cc(C(N)=O)[nH]n3)C2)o1 (centres undefined)",
    "unitAbbrev": "%",
    "cytotoxicity at 10 µM": -9.14
  },
  {
    "molecule": "Fc1ccccc1Oc1nccnc1C1CCN(C2CCOCC2)CC1",
    "unitAbbrev": "%",
    "cytotoxicity at 10 µM": 13.9
  },
  {
    "molecule": "Cc1nc2ccc(C(=O)N3CC[C@H](O)[C@@H](N4CCOCC4)CC3)cc2[nH]1",
    "unitAbbrev": "%",
    "cytotoxicity at 10 µM": -8.32
  },
  {
    "molecule": "CCN(Cc1ccoc1)C(C(N)=O)c1ccc(Br)cc1 (centres undefined)",
    "unitAbbrev": "%",
    "cytotoxicity at 10 µM": -5.5
  },
  {
    "molecule": "Cc1n[nH]c(C)c1Sc1ccccc1NC(=O)N1CCCC(C(N)=O)C1 (centres undefined)",
    "unitAbbrev": "%",
    "cytotoxicity at 10 µM": -7.59
  },
  {
    "molecule": "COc1c(CNC2CCOc3c(Cl)cccc32)c(C(C)C)nn1C (centres undefined)",
    "unitAbbrev": "%",
    "cytotoxicity at 10 µM": 2.25
  },
  {
    "molecule": "O=S(=O)(c1cnccc1N1CCN(CCO)CC1)N1CCCCC1",
    "unitAbbrev": "%",
    "cytotoxicity at 10 µM": 15.7
  },
  {
    "molecule": "Clc1ccc(CN2CCCCC2Cn2cncn2)c2ncccc12 (centres undefined)",
    "unitAbbrev": "%",
    "cytotoxicity at 10 µM": -4.66
  },
  {
    "molecule": "O=C(CCc1nnc(-c2ccccc2)o1)N1CCN(CC2CC2)CC1",
    "unitAbbrev": "%",
    "cytotoxicity at 10 µM": -13.7
  },
  {
    "molecule": "Cc1c(Cl)cccc1NC(=O)N1CCC2(CC1)NC(=O)CC2C(=O)O (centres undefined)",
    "unitAbbrev": "%",
    "cytotoxicity at 10 µM": -1
  },
  {
    "molecule": "CS(=O)(=O)CCN1CCCC1c1noc(C2CC2)n1 (centres undefined)",
    "unitAbbrev": "%",
    "cytotoxicity at 10 µM": -6.82
  },
  {
    "molecule": "CN(Cc1ccc(C(N)=O)cc1)c1ccc(C(F)(F)F)cn1",
    "unitAbbrev": "%",
    "cytotoxicity at 10 µM": 7.98
  }
]
